B1: tRNA (parent)
chain: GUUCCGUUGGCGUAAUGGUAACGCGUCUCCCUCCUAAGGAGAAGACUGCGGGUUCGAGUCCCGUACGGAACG

- Variants of: B1
- Method summary: yeast fitness relative to wild type (ratio to wild type); higher = fitter; tRNA-Arg(CCU), competitive growth, 37 C, YPD
Fewer inactive variants are shown than the library holds.
Measured property: yeast fitness
Enter the number alone.

Given A57U A65G , respond with its yeast fitness. 0.753

Given U19A C49G G56U , respond with its yeast fitness. 0.558

Given A37U G58A , respond with its yeast fitness. 0.767

Given G12C A42G A70U , respond with its yeast fitness. 0.592

Given C22U A42G C55G A70U , respond with its yeast fitness. 0.556

Given C11G A15C , respond with its yeast fitness. 0.528

Given A42U C60U A70G , respond with its yeast fitness. 0.703

Given U32G A36U , respond with its yeast fitness. 0.697

Given G6A A36C , respond with its yeast fitness. 0.53

Given G63A G67A , respond with its yeast fitness. 0.693

Given C22G A45C G52C A57U , respond with its yeast fitness. 0.549

Given U19C G51C , respond with its yeast fitness. 0.519

Given U3A U59G , respond with its yeast fitness. 0.81

Given C27U A45G U64A , respond with its yeast fitness. 0.553

Given A36G C49G A70G , respond with its yeast fitness. 0.53

Given C62A A65U , respond with its yeast fitness. 0.772

Given C34G A43U C61G , respond with its yeast fitness. 0.614

Given C5U U13C U35G C49U , respond with its yeast fitness. 0.608

Given G39U A45C , respond with its yeast fitness. 0.851

Given U59G C60U , respond with its yeast fitness. 0.63

Given C4G G18A C66U , respond with its yeast fitness. 0.524

Given C22A C49U C55A , respond with its yeast fitness. 0.656

Given C33U , respond with its yeast fitness. 0.694

Given C60A G67C , respond with its yeast fitness. 0.654

Given A42G A65G , respond with its yeast fitness. 0.735

Given U3G U32C , respond with its yeast fitness. 0.86

Given C4G U16A G63A , respond with its yeast fitness. 0.534

Given U2G G6A A20G , respond with its yeast fitness. 0.61

Given C24U G48A G51A , respond with its yeast fitness. 0.665

Given G39A G67A , respond with its yeast fitness. 0.769

Given U16A A37C G48C , respond with its yeast fitness. 0.546

Given U26A G52A , respond with its yeast fitness. 0.666

Given A43U G56C , respond with its yeast fitness. 0.702

Given A21C A42U A45U , respond with its yeast fitness. 0.646

Given C27U G48A , respond with its yeast fitness. 1.1

Given U26G C66U , respond with its yeast fitness. 0.862

Given G10A U19C G48A C49G A69U , respond with its yeast fitness. 0.594

Given A43U C46A A65C , respond with its yeast fitness. 0.688

Given A40C G48C , respond with its yeast fitness. 0.684

Given A15U A42G , respond with its yeast fitness. 0.746

Given C11G C29A , respond with its yeast fitness. 0.518

Given A43C A69C , respond with its yeast fitness. 1.04

Given C29U U64G , respond with its yeast fitness. 0.748

Given C4U A20G C61A , respond with its yeast fitness. 0.512

Given G9A C22G A36U , respond with its yeast fitness. 0.666
